Origin of values: patent US8530475B2

Target: human 5-HTT (Homo sapiens)
Construct: purchased Perkin-Elmer, USA; host or cells: HEK293 cells, stably transfected (membranes)
Assay: Radioligand binding to 5-HTT (serotonin transporter, SERT), [3H]Paroxetine
Details: Example 77; membranes of HEK293 cells, [3H]Paroxetine 0.5 nM; <5 = not active at up to 10 μM; read-out: h5HTT pIC50 (converted)
Lab note: cut-off is 60 nM. Strictly less in IC50 is criterion met. Exactly 60 nM or more is criterion not met.

1. COc1cc2c(cc1OC)C1=NO[C@H](CN3C[C@@H]4C/C=C\C[C@H]3CN4c3ccc4ccccc4c3)C1CO2 (stereo partly drawn) = criterion not met
2. Cc1cc2c(OC[C@@H](O)CN3C[C@@H]4C/C=C\C[C@H]3CN4c3cnc4ccccc4c3)cccc2[nH]1 = criterion not met
3. C1=C\C[C@H]2CN[C@@H](C/1)CN2c1cccc2ncccc12 = criterion not met
4. Cc1cc2c(OCCCN3C[C@@H]4C/C=C\C[C@H]3CN4c3ccc4ccccc4c3)cccc2[nH]1 = criterion met
5. O[C@H](COc1cccc2ncccc12)CN1C[C@@H]2C/C=C\C[C@H]1CN2c1ccc2ccccc2c1 = criterion not met
6. C1=C\C[C@H]2CN(c3ccc4ccccc4c3)[C@@H](C/1)CN2C1Cc2ccccc2C1 = criterion not met
7. COC(=O)c1cc2c(OC[C@@H](O)CN3C[C@@H]4C/C=C\C[C@H]3CN4c3ccc4ccccc4c3)cc(OC)cc2[nH]1 = criterion not met
8. Cc1cc2c(OC[C@@H](O)CN3C[C@@H]4C/C=C\C[C@H]3CN4c3ccc4ccccc4c3)c(C)ccc2[nH]1 = criterion met
9. Cc1cc2c(OC[C@@H](O)CN3C[C@@H]4C/C=C\C[C@H]3CN4c3ccc4c(c3)OCCO4)cccc2[nH]1 = criterion not met
10. Cc1cc2c(OC[C@@H](O)CN3C[C@@H]4C/C=C\C[C@H]3CN4c3ccc4ccccc4c3)c(F)ccc2[nH]1 = criterion met
11. COC(=O)c1cc2c(OC[C@@H](O)CN3C[C@@H]4C/C=C\C[C@H]3CN4c3ccc4ccccc4c3)ccc(Cl)c2[nH]1 = criterion met
12. COC(=O)c1cc2c(OC[C@@H](O)CN3C[C@@H]4C/C=C\C[C@H]3CN4c3ccc4ccccc4c3)cccc2[nH]1 = criterion met

----------
Molecular target: human 5-HTT (Homo sapiens, UniProt P31645)
Construct: purchased Perkin-Elmer, USA; host or cells: HEK293 cells, stably transfected (membranes)
Sequence (P31645 whole entry): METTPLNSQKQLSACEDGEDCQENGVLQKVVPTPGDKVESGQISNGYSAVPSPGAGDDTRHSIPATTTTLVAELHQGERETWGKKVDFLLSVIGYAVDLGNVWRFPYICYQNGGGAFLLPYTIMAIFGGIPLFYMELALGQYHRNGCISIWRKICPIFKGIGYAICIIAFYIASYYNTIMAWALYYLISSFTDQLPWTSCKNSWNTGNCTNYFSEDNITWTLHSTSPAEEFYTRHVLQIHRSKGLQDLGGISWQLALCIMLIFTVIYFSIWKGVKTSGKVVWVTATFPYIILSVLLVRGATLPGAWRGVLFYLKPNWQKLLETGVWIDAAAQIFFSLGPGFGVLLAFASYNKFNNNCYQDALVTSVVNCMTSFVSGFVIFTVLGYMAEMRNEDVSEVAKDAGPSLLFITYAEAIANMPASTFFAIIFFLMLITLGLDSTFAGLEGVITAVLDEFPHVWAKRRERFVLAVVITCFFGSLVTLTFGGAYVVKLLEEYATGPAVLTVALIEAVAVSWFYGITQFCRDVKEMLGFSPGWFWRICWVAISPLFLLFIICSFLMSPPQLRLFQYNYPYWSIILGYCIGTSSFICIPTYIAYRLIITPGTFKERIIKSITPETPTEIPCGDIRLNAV
Test: Radioligand binding to 5-HTT (serotonin transporter, SERT), [3H]Paroxetine
Conditions: Example 77; membranes of HEK293 cells, [3H]Paroxetine 0.5 nM; <5 = not active at up to 10 μM; read-out: h5HTT pIC50 (converted)
Binary call on IC50 with cut-off 0.09 µM: strictly below means T, and equality or higher means F.

1) COC(=O)c1cc2c(OC[C@@H](O)CN3C[C@@H]4C/C=C\C[C@H]3CN4c3ccc4ccccc4c3)ccc(C)c2[nH]1 = T
2) Cn1ccc2c(OC[C@@H](O)CN3C[C@H]4C/C=C\C[C@@H]3CN4c3ccc4ccccc4c3)cccc21 = T
3) Cc1cc2c(OC[C@@H](O)CN3C[C@@H]4C/C=C\C[C@H]3CN4c3ccc(Cl)c(Cl)c3)cccc2[nH]1 = F
4) C#CCN1C[C@@H]2C/C=C\C[C@H]1CN2c1ccc2ccccc2c1 = T
5) COc1cc2c(cc1OC)C1=NO[C@@H](CN3C[C@@H]4C/C=C\C[C@H]3CN4c3ccc4ccccc4c3)C1CO2 (stereo partly shown) = F
6) Cc1cc2c(OC[C@H](O)CN3CC4CC=CCC3CN4c3ccc4ccccc4c3)cccc2[nH]1 (stereo partly shown) = T
7) C1=C\C[C@H]2CN(CCNc3ccccn3)[C@@H](C/1)CN2c1ccc2ccccc2c1 = F
